Value source: patent US20110097326A1

# Target or test system: T1, recombinant Fc-TrkB antigen (human) (human, UniProt Q16620 32-430, limits assumed)
# T1 construct: Biotinylated for the ForteBio assays; also called Fc-hTrkB; human Fc-TrkB; not shown: Fc part
# Assay notes: BLI (ForteBio Octet), biotinylated Fc-TrkB on streptavidin sensors, Fab at 1E-7 M
Recorded measurements of koff, one per entry
Output spec: scalar in s⁻¹, unitless text.

Use the examples below as a reference point.
binder="Fab TR144-1 (Fab, V domains shown, Fab with human V-segments, expressed in E. coli) VH: QVQLVQSGAEVKKPGASVKVSCKASGYTFTAYDMHWVRQAPGQGLEWMGWIDPRSGDTSYKQKFQGRVTMTRDTSISTAYMELHRLRSDDTAVYYCTGVTTWFAYWGQGTLVTVSS VL: MDVVMTQSPLSLPVTLGQPASISCRSSQSLVHSNGNTYLNWYQQKPGQPPRLLIYKISNRFSGVPDRFSGSGAGTDFTLKISRVEAEDVGVYYCMQGTHEPYTFGQGKLEIK" numeric_result=0.00392
binder="Fab TR151-1 (Fab, V domains shown, Fab with human V-segments, expressed in E. coli) VH: QVQLVQSGAEVKKPGASVKVSCKASGYTFTAYDMHWVRQAPGQGLEWMGWIDPNSGGTRYAQKFQGRVTMTRDTSISTAYMELSRLTSDDTAVYYCAGVTSWFAYWGQGTLVTVSS VL: MDVVMTQSPLSLPVTLGQPASISCRSSQSLVHSNGNTYLSWLQQRPGQPPRLLIYKISNRFSGVPDRFSGSGAGTDFTLKISRVEAEDVGVYYCMQGTHEPYTFGQGKLEIK" numeric_result=0.00395
binder="Fab TR139-2 (Fab, V domains shown, Fab with human V-segments, expressed in E. coli) VH: QVQLVQSGAEVKKPGASVKVSCKASGYTFTAYDMHWVRQAPGQGLEWMGWIDPNSGGTRYAQKFQGRVTMTRDTSISTAYMELSRLTSDDTAVYYCTGVTTWFAYWGQGTLVTVSS VL: MDVVMTQSPLSLPVTLGQPASISCRSSQSLVHSNGNTYLSWLQQRPGQPPRLLIYKISNRFSGVPDRFSGSGAGTDFTLKISRVEAEDVGVYYCMQGTHEPYTFGQGKLEIK" numeric_result=0.00317

Please find the next binder below.
[in] Find the recorded koff belonging to Fab TR135-8 (Fab, V domains shown, Fab with human V-segments, expressed in E. coli; detected with anti-human kappa) VH: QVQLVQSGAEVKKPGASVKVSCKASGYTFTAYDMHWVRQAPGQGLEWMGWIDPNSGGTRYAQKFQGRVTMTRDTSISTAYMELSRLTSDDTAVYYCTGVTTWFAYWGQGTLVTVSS VL: MDVVMTQSPLSLPVTLGQPASISCRSSQSLVHSNGNTYLNWYQQKPGQPPRLLIYKISNRFSGVPDRFSGSGAGTDFTLKISRVEAEDVGVYYCMQGTHEPYTFGQGKLEIK and report it.
[out] 0.00439
